B1: TPR t1 (parent)
chain: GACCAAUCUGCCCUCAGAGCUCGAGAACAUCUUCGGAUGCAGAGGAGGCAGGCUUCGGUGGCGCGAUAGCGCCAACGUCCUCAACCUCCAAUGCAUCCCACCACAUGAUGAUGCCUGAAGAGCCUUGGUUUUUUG

Variants of: B1
test_protocol: polymerase ribozyme fitness, log enrichment relative to wild type (log ratio); higher = more active; in vitro selection for triplet polymerase activity
Would you mind classing the entries by polymerase ribozyme fitness (log ratio)? Ranges: class A: < -4; class B: ≥ -4 and < -2; class C: ≥ -2

Solved cases (5 shown):
{"columns": ["entry_sequence", "assigned_class"],
 "data": [
  ["GACCAAUCUGCCCUCAGAGCUCGAGUACAUCUUCGGAUGCAGAGGAGGCAGGCUUCGGUGGCGCGAUAGCGCCAACGUCCUCAACCUCCAAUGCAUCCCACCACAUGAUGAUGCCUGAGGAGCCUUGGUUUUUUG [A26U A119G]", "class B"],
  ["GACCAAUAUGCCCUCAGAGCUCGAGAACAUCUACGGAUGCAUAGGAGGCAGGCUUCGGUGGCGCGAUAGCGCCAACGUCCUCAACCUCCAAUGCAUCCCACCACAUGAUGAAGCCUGAAGAGACUUGGUUUUUUG [C8A U33A G42U U112A C123A]", "class A"],
  ["GACCAAUCUGCCCUCUGAGCUCGAGAACAUCUUCGGAUGCAGAGGAGGCAGGCUUCGGUGGCGCGAUAGCGCCAACGUCCUCAACCUCCAAUGCAUCCCACCACAUGAUGAUUCCUGAAGAGCCUUGGUUUUUUG [A16U G113U]", "class A"],
  ["GACCAAUCUCCCCUCAGAGCUCGAGAACAUCUUCGGAUGCAGAGGAGGCAGGCUUCGGUGGCGCGAUAGCGCCAACGUCCUCAACCUCCAAUGCAUCCCACCACAUGAUCAUGCCUGAAGAGCCUUGGUUUUUUG [G10C G110C]", "class A"],
  ["GAUCAAUAUGCCCUCAGAGCUCGAGAACAUCUUCGGAUGCAGAGGAGGCAGGCUUCGGUGGCGCGAUAGCGCGAACGUCCUCAACCUCCAAUGCAUCCCACCACAUGAUGAUGCCUGAACAGCCUUGGUUUUUUC [C3U C8A C73G G120C G135C]", "class C"]
]}

Okay, next one:
Field: class (polymerase ribozyme fitness (log ratio)) — entry: GACCAAUCUGCCCUCAGAGCUCGAGAACAUCUUCGGAUGCAGAGGAGGCAGGCUUCGGUAGCGCGAUAGCGCCAACGUCCUCAACCUUCAAUGCAUCCCACCACAUGAUGAUGCCUGGAGAGCCUUGGUUUUUUG [G60A C88U A118G]
class C
